- run description: recombinant UMI read abundance after kanamycin selection (control-corrected) (log10(CPM+1)); higher = more efficient recombination; extreme values may be limits of the assay; sequences stand for … in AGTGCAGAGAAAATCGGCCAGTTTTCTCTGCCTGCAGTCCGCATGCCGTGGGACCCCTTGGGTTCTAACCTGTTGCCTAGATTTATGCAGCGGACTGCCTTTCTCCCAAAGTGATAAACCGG…AGGTTGGTTTCACT; site = the 11-nt donor;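 also: IS621 bridge recombinase in Escherichia coli cells against a fixed T5 target plasmid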
// classify(record): look up recombinant UMI read abundance (log10) in ranges zone 1 = under 0.01, zone 2 = from 0.01 up to 0.9, zone 3 = 0.9 and over

Please review the entries below; each comes with its answer.
CAAGTAACATGGACCGGTTTTCCCGGTAATCCGTATTTGGG (site CAAGTTACTCC): zone 2
GGCCGATCATGGACCGGTTTTCCCGGTAATCCGTATTTGTC (site GGCCGATCTGA): zone 2
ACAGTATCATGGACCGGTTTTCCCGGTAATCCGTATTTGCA (site ACATTATCTTT): zone 2

Challenge: Place this sequence in its band: ATGTGGACATGGACCGGTTTTCCCGGTAATCCGTATTTGAC (site ATGTGGACTGT)
Response given: zone 3

Challenge: Place this sequence in its band: GGTGCTGCATGGACCGGTTTTCCCGGTAATCCGTATTTGTG (site GGTGCTGCTCA)
Response given: zone 2

Challenge: Place this sequence in its band: CGGATTCCATGGACCGGTTTTCCCGGTAATCCGTATTTGTA (site CGGATTCCTTA)
Response given: zone 1

Challenge: Place this sequence in its band: GCTACTGCATGGACCGGTTTTCCCGGTAATCCGTATTTGTC (site GCTACTGCTGC)
Response given: zone 1

Challenge: Place this sequence in its band: TAGGATTCATGGACCGGTTTTCCCGGTAATCCGTATTTGCG (site TAGGAGTCTCG)
Response given: zone 2

Challenge: Place this sequence in its band: CGTGGCACATGGACCGGTTTTCCCGGTAATCCGTATTTGTT (site CGTGGCACTAA)
Response given: zone 2

Challenge: Place this sequence in its band: CCTAAAACATGGACCGGTTTTCCCGGTAATCCGTATTTGGC (site CCTAAGACTGC)
Response given: zone 1

Challenge: Place this sequence in its band: ACACATTCATGGACCGGTTTTCCCGGTAATCCGTATTTGAC (site ACACATTCTGT)
Response given: zone 3

Challenge: Place this sequence in its band: CGGTATACATGGACCGGTTTTCCCGGTAATCCGTATTTGTT (site CGGAATCCTAA)
Response given: zone 1

Challenge: Place this sequence in its band: AAATGAGCATGGACCGGTTTTCCCGGTAATCCGTATTTGGG (site GAATGAGCTCC)
Response given: zone 1

Challenge: Place this sequence in its band: GTGCAGGCATGGACCGGTTTTCCCGGTAATCCGTATTTGTC (site GTGCAGGCTGA)
Response given: zone 3

Challenge: Place this sequence in its band: TTCGCTGCATGGACCGGTTTTCCCGGTAATCCGTATTTGTG (site TTAGCTGCTCA)
Response given: zone 2

Challenge: Place this sequence in its band: TCCACCGCATGGACCGGTTTTCCCGGTAATCCGTATTTGAG (site TCCACCGCTCT)
Response given: zone 2

Challenge: Place this sequence in its band: CCCGGTGCATGGACCGGTTTTCCCGGTAATCCGTATTTGAT (site CCAGGTGCTAT)
Response given: zone 2

Challenge: Place this sequence in its band: GGCACTCCATGGACCGGTTTTCCCGGTAATCCGTATTTGAA (site GGCAATCCTTT)
Response given: zone 1

Challenge: Place this sequence in its band: CTTCTATCATGGACCGGTTTTCCCGGTAATCCGTATTTGTA (site CTTCTCTCTTA)
Response given: zone 2

Challenge: Place this sequence in its band: CCTTAAGCATGGACCGGTTTTCCCGGTAATCCGTATTTGAT (site CCTCAAGCTAT)
Response given: zone 2

Challenge: Place this sequence in its band: TGAGAGACATGGACCGGTTTTCCCGGTAATCCGTATTTGCG (site TAAGAGACTCG)
Response given: zone 3

Challenge: Place this sequence in its band: AAAGTAGCATGGACCGGTTTTCCCGGTAATCCGTATTTGCT (site AAAGTAGCTAG)
Response given: zone 3

Challenge: Place this sequence in its band: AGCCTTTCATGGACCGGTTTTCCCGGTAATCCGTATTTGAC (site AGCCTATCTGT)
Response given: zone 3

Challenge: Place this sequence in its band: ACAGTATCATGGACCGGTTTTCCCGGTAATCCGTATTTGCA (site ACCGTCTCTTG)
Response given: zone 3

----------
- run description: recombinant UMI read abundance after kanamycin selection (control-corrected) (log10(CPM+1)); higher = more efficient recombination; extreme values may be limits of the assay; sequences stand for … in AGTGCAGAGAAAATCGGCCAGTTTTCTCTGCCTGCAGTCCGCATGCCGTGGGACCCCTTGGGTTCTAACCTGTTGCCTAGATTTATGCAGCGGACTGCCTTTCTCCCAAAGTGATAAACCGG…AGGTTGGTTTCACT; site = the 11-nt donor
measure name: recombinant UMI read abundance (log10)
No unit in the answer, please; the number alone is enough.

Some sequences with known recombinant UMI read abundance (log10) results, for comparison:
CCGTTTCCATGGACCGGTTTTCCCGGTAATCCGTATTTGCT (site CCGTTTACTAG): 0
CCAGGATCATGGACCGGTTTTCCCGGTAATCCGTATTTGAT (site CCAGGATCTAT): 0

In plain terms, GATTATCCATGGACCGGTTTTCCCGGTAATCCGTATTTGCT (site GATCATCCTAG) has a documented recombinant UMI read abundance (log10) of 0.81

In plain terms, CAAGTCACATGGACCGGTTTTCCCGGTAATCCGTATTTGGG (site CAAGTTACTCC) has a documented recombinant UMI read abundance (log10) of 0.161

In plain terms, TATTAGGCATGGACCGGTTTTCCCGGTAATCCGTATTTGTG (site TATTGGGCTCA) has a documented recombinant UMI read abundance (log10) of 0

In plain terms, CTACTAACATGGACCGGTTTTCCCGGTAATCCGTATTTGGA (site CTACTCACTTC) has a documented recombinant UMI read abundance (log10) of 0.0167

In plain terms, TAGGTAGCATGGACCGGTTTTCCCGGTAATCCGTATTTGAA (site TAGATAGCTTT) has a documented recombinant UMI read abundance (log10) of 0.894

In plain terms, CGCCACCCATGGACCGGTTTTCCCGGTAATCCGTATTTGTT (site CGCCACCCTAA) has a documented recombinant UMI read abundance (log10) of 0.0407

In plain terms, GATTGGACATGGACCGGTTTTCCCGGTAATCCGTATTTGAG (site GATTGGACTAT) has a documented recombinant UMI read abundance (log10) of 0.00853

In plain terms, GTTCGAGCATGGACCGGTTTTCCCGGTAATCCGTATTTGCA (site GTTTGAGCTTG) has a documented recombinant UMI read abundance (log10) of 0.607

----------
- run description: recombinant UMI read abundance after kanamycin selection (control-corrected) (log10(CPM+1)); higher = more efficient recombination; extreme values may be limits of the assay; sequences stand for … in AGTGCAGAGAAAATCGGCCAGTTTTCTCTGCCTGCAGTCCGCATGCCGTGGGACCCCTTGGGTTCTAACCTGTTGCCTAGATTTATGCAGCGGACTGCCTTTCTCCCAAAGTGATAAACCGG…AGGTTGGTTTCACT; site = the 11-nt donor
measure name: recombinant UMI read abundance (log10)
No unit in the answer, please; the number alone is enough.

TTAGCTGCATGGACCGGTTTTCCCGGTAATCCGTATTTGTC (site TTAGCTGCTTA): 0.15
CATTGTACATGGACCGGTTTTCCCGGTAATCCGTATTTGGG (site CATTGTACTCC): 0.0267
TCCAACGCATGGACCGGTTTTCCCGGTAATCCGTATTTGAT (site TCCAACGCTAT): 0

In plain terms, TTAGCTGCATGGACCGGTTTTCCCGGTAATCCGTATTTGTC (site TTAGCTGCTCA) has a documented recombinant UMI read abundance (log10) of 0.00796

In plain terms, ACCTTTCCATGGACCGGTTTTCCCGGTAATCCGTATTTGCT (site ACCTTTCCTAG) has a documented recombinant UMI read abundance (log10) of 0

In plain terms, TAACCTTCATGGACCGGTTTTCCCGGTAATCCGTATTTGGT (site TATCCTTCTAC) has a documented recombinant UMI read abundance (log10) of 0

In plain terms, CGTGAGTCATGGACCGGTTTTCCCGGTAATCCGTATTTGCC (site CGCGAGTCTGG) has a documented recombinant UMI read abundance (log10) of 0

In plain terms, TGCTAGGCATGGACCGGTTTTCCCGGTAATCCGTATTTGCT (site TGCTAGGCTAG) has a documented recombinant UMI read abundance (log10) of 0.521

Origin of values: the supplement of paper PMC11208160
